The reported numbers originate from paper PMC6214909.

- tested.on: NTMT2 (Homo sapiens)
- Construct: DNA encoding human NTMT2 (residues 58–278) was amplified by PCR; SUMO (His8-SUMO of the pET28-MKH8SUMO vector, with TEV site) (N, cleaved yes); made in house; host or cells: Escherichia coli BL21 (DE3)
- Sequence (Q5VVY1 58-278): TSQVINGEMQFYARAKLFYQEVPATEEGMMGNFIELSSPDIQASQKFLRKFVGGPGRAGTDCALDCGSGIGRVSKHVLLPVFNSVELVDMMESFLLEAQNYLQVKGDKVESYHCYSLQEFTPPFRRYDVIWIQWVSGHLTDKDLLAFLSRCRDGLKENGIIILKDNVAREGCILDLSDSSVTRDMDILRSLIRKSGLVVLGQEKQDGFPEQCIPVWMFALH
- experiment.summary: MALDI-MS methyltransferase activity assay, NTMT2
- Format: biochemical
- measurement.parameters: 2 μM NTMT2, 10 μM peptide, 200 μM SAM, 25 mM Tris–HCl pH 7.5, 50 mM KCl, 37 °C, overnight
attribute.measured: Unmethylated fraction (%)

| substance | Unmethylated fraction [%] |
| --- | --- |
| RPKRIA [synthetic XPKRIA hexapeptide substrate, X = R] | 76.65 |
| CPKRIA [synthetic XPKRIA hexapeptide substrate, X = C] | 74.80 |
| IPKRIA [synthetic XPKRIA hexapeptide substrate, X = I] | 100.00 |

1. LPKRIA [synthetic XPKRIA hexapeptide substrate, X = L]
2. PPKRIA [synthetic XPKRIA hexapeptide substrate, X = P]
Query: Recorded Unmethylated fraction values differ for 1 and 2 ; which one is higher? Lab log: write the label of the selected item as the result.
Reply: 1
